Recorded values, source the Human Domainome abundance scans (Beltran et al. 2025).

B1: Transitional endoplasmic reticulum ATPase, residues 26 to 106; numbered along this chain, P55072 (parent)
chain: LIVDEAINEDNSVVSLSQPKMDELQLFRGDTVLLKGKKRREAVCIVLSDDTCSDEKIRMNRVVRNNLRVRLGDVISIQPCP

Variants of: B1
PROCEDURE DETAILS: abundance fitness (aPCA) (normalised: wild type 0, dead -1); higher = more abundant; growth selection in yeast, the domain comes from the species named
CONDITION SET: Homo sapiens
Each record gets a class by abundance fitness: low range = under -0.2, mid range = from -0.2 up to -0.1, high range = -0.1 and over

{"VARIANT CODE": "D10I", "LABEL VALUE": "mid range"}
{"VARIANT CODE": "E55P", "LABEL VALUE": "high range"}
{"VARIANT CODE": "N60R", "LABEL VALUE": "low range"}
{"VARIANT CODE": "S76A", "LABEL VALUE": "high range"}
{"VARIANT CODE": "G72Q", "LABEL VALUE": "low range"}
{"VARIANT CODE": "R64C", "LABEL VALUE": "low range"}
{"VARIANT CODE": "M59V", "LABEL VALUE": "mid range"}
{"VARIANT CODE": "D4Y", "LABEL VALUE": "low range"}
{"VARIANT CODE": "I2E", "LABEL VALUE": "mid range"}
{"VARIANT CODE": "S12K", "LABEL VALUE": "high range"}
{"VARIANT CODE": "S12P", "LABEL VALUE": "mid range"}
